Tested on: NCI-H2009
protocol-text: relative viability (nuclei count vs DMSO), 5 days (fraction); higher = more cells survive
test-context: first compound 2.53 µM
Lab note - cut at 1 for relative viability: 1 (yes) if strictly below, 0 (no) if not.

Example results:
molecule | assigned-category
O=c1cc(-c2cccc3c2Sc2ccccc2S3)oc(N2CCOCC2)c1 + CC1(C)CCC(c2ccc(Cl)cc2)=C(CN2CCN(c3ccc(C(=O)NS(=O)(=O)c4ccc(N[C@H](CCN5CCOCC5)CSc5ccccc5)c(S(=O)(=O)C(F)(F)F)c4)cc3)CC2)C1 [Navitoclax] (partner 0.5 µM) | 0 (no)
COc1nc(C)cnc1NS(=O)(=O)c1cccnc1-c1ccc(-c2nnco2)cc1 [Zibotentan] + Cc1nc(Nc2ncc(C(=O)Nc3c(C)cccc3Cl)s2)cc(N2CCN(CCO)CC2)n1 [Dasatinib] (partner 0.075 µM) | 1 (yes)
COc1nc(C)cnc1NS(=O)(=O)c1cccnc1-c1ccc(-c2nnco2)cc1 [Zibotentan] + Cc1cc(Nc2cc(N3CCN(C)CC3)nc(Sc3ccc(NC(=O)C4CC4)cc3)n2)n[nH]1 [Tozasertib] (partner 0.1 µM) | 1 (yes)
O=c1cc(-c2cccc3c2Sc2ccccc2S3)oc(N2CCOCC2)c1 + CC(C)C[C@H](NC(=O)[C@H](Cc1ccccc1)NC(=O)c1cnccn1)B(O)O [Bortezomib] (partner 0.002 µM) | 1 (yes)
O=c1cc(-c2cccc3c2Sc2ccccc2S3)oc(N2CCOCC2)c1 + Cc1nc(NC(=O)N2CCC[C@H]2C(N)=O)sc1-c1ccnc(C(C)(C)C(F)(F)F)c1 [Alpelisib] (partner 2 µM) | 0 (no)
O=c1cc(-c2cccc3c2Sc2ccccc2S3)oc(N2CCOCC2)c1 + CS(=O)(=O)CCNCc1ccc(-c2ccc3ncnc(Nc4ccc(OCc5cccc(F)c5)c(Cl)c4)c3c2)o1 [Lapatinib] (partner 2 µM) | 1 (yes)

Next:
[in] Please state whether relative viability is below 1 for COc1nc(C)cnc1NS(=O)(=O)c1cccnc1-c1ccc(-c2nnco2)cc1 [Zibotentan] + COc1cc2c(Oc3ccc(NC(=O)C4(C(=O)Nc5ccc(F)cc5)CC4)cc3F)ccnc2cc1OCCCN1CCOCC1 [Foretinib] (partner 0.25 µM)
[out] 0 (no)
